molecular target: mTOR (Homo sapiens); construct: Eurofins Pharma Discovery Services (contract assay service); experiment: kinase selectivity panel; format: biochemical; details: 10 μM; read-out: percentage of control activity (POC), mTOR
measured_property: remaining activity at 10 µM (%)
Write it as a number; the unit % goes unstated.

* COc1c(NC(=O)c2ccc(C)c(-c3nnc4c(NCC(C)(C)C)nccn34)c2)cc(C(C)(C)C)cc1NS(C)(=O)=O [compound 7, reference compound] | 96
* Cc1ccc(C(=O)NCC2CC2)cc1-c1ccc2c(c1)NC(=O)C21CCCC1 [compound 3] | 99
* CC(C)(C)N1CCC(c2cc(-c3ccc(F)cc3Cl)c3cc[n+]([O-])c(-c4c(Cl)cccc4Cl)c3n2)CC1 [compound 2] | 101

So for CS(=O)(=O)N1CCN(c2ccc(Nc3ncc(C(N)=O)c(NC4CC4)n3)cc2)CC1 [compound 5] , the logged remaining activity at 10 µM turned out to be 96

So for Cn1cc(-c2cccc(-c3nc(C(=O)NC4C5CC6CC4CC(O)(C6)C5)c(N)nc3N)c2)cn1 (centres unmarked) [compound 4] , the logged remaining activity at 10 µM turned out to be 13
